# gcPBM binding intensity (ln) annotations
Test system: PfAP2-EXP AP2 domain (GST-tagged)
Experiment: gcPBM binding intensity (ln(normalized median fluorescence intensity)); higher = stronger DNA binding
In all, about 25,000 sequences were measured (“ln(normalized median fluorescence intensity)”: median about 8.6, highest 2% from about 10 on). The sample as a whole holds a higher share of the highest values than the screen did.
Format: numeric value only, no unit, no commentary.

Some sequences with recorded gcPBM binding intensity (ln):
Record sequence	Target system	gcPBM binding intensity (ln)
TGAACAATATATAATAGTACATATTTATTTTTTTCT [XGTACX_site4256]	PfAP2-EXP AP2 domain (GST-tagged)	8.13
ATATATATATATATATGTACACAGGACAATAATCCT [XGTACX_site6383]	PfAP2-EXP AP2 domain (GST-tagged)	10.2
ATAATATAATATATATGTACACATCCTTTTTGTGTA [XGTACX_site2879]	PfAP2-EXP AP2 domain (GST-tagged)	8.62
AAATTGGTTCATCAATGTACATGTAAAATAAATCAA [XGTACX_site4795]	PfAP2-EXP AP2 domain (GST-tagged)	8.88

Please look at the following sequence next.
AGAGGCCAGCTTTCTCTTCTAAACATGTACAAAAAT [GTGCAC_negctrl_site98] on PfAP2-EXP AP2 domain (GST-tagged) gives gcPBM binding intensity (ln) = 8.63
